Hello, the source for this data is the supplement of paper PMC10567573, in case you need it.

experiment: protein stability index of a GFP-peptide fusion (GPS, HEK-293T) (PSI 1-6); higher = more stable; settings: treatment: MLN4924 1 uM, 8 h; c terminus: a fixed tail appended;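 also: 24-mer peptide tiles fused after GFP, lentivirally expressed, FACS-sorted into six equal bins by GFP/DsRed ratio, decoded by Illumina sequencing, PSI is the read-weighted mean bin number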
Observation Type: protein stability index
No unit in the answer, only the number.

These recorded examples may help you get a feel for the data.
>  <Record Sequence>
GVKFVGLFIILQVGLNTIADLWYL [POMT2]

>  <Recorded Measurement>
2.9

$$$$
>  <Record Sequence>
VFEKAGVSISVVHGNLSEEAAKQM [CPOX]

>  <Recorded Measurement>
3.65

$$$$
>  <Record Sequence>
YLGSAYHASKCEFLANLHITALLN [DUSP5]

>  <Recorded Measurement>
2.61

$$$$
>  <Record Sequence>
SFQIVLDPMLDFYSDKNAKLTKES [TENT5D]

>  <Recorded Measurement>
3.09

$$$$
>  <Record Sequence>
LTRLRTASGHEPGGSAVCASRVKL [PLEKHN1]

>  <Recorded Measurement>
3.61

$$$$

[Q] Which protein stability index is listed for FLPGGDMMTLLMKKDTLTEEETQF [STK38L] ?
[A] 3.44

[Q] Which protein stability index is listed for KTRQKSEKQMEEKRRANQKSSAQG [PPEF2] ?
[A] 5.3

[Q] Which protein stability index is listed for EVEEADGNKQWWFGGGCDLTPTYL [CPOX] ?
[A] 3.36

[Q] Which protein stability index is listed for QDDHDHKVQELMSTHELEKKELEE [MTUS2] ?
[A] 5.59

[Q] Which protein stability index is listed for RAMHLMKKREKQREQMEQMKQRIA [FAM50A] ?
[A] 3.51

[Q] Which protein stability index is listed for QPPVPSLSEVKPPPPPPPAQTFLF [TRADD] ?
[A] 3.44

###

# maps each entry to its protein stability index
assay: protein stability index of a GFP-peptide fusion (GPS, HEK-293T) (PSI 1-6); higher = more stable; details: treatment: MLN4924 1 uM, 8 h; c terminus: a fixed tail appended
No unit in the answer, only the number.

These recorded examples may help you get a feel for the data.
>  <Record Sequence>
IGPFGGFFASGFKRAFKIKDFANT [CDS2]

>  <protein stability index>
2.15

$$$$
>  <Record Sequence>
ALDEAAAALTRMRAESTANAGQSD [ANKRD17]

>  <protein stability index>
5.36

$$$$
>  <Record Sequence>
DALTKLEQGEPLWTLEDEIHSPAH [ZNF649]

>  <protein stability index>
3.65

$$$$
>  <Record Sequence>
YSSEDSTLASVPPAATFGADDLVL [ELF3]

>  <protein stability index>
4.48

$$$$
>  <Record Sequence>
ALRKIIKTLAVKNEEIQSFIYSLK [FSD1]

>  <protein stability index>
2.89

$$$$
>  <Record Sequence>
PAPASSTPQEPWPGPTAPSPTSRP [PDLIM7]

>  <protein stability index>
5.13

$$$$
>  <Record Sequence>
ADIDHDQALAQAIKEAKEQHPDMS [EPB41L3]

>  <protein stability index>
5.51

$$$$
>  <Record Sequence>
EEEAASPEGKRVPKRLRCWEEEED [FANCE]

>  <protein stability index>
5.38

$$$$

[Q] Which protein stability index is listed for QFLKELLLKPHSYGRFIRWLNKEK [SPDEF] ?
[A] 2.21

[Q] Which protein stability index is listed for SDSMHIEDVEAVQKLQDVLHEALQ [ESRRG] ?
[A] 3.54

[Q] Which protein stability index is listed for PDRASGPEGSLSQTMAGSSPNTPQ [FAM104A] ?
[A] 5.34

[Q] Which protein stability index is listed for FTKETTQKNFNNLYGTKGNYTSRV [TRIM29] ?
[A] 2.61

[Q] Which protein stability index is listed for VRTLEGVFQHHQYLSPLERKRLAR [VENTX] ?
[A] 3.54

###

test: protein stability index of a GFP-peptide fusion (GPS, HEK-293T) (PSI 1-6); higher = more stable; conditions: treatment: MLN4924 1 uM, 8 h; c terminus: a fixed tail appended
Tag: y if measured protein stability index is not below 4, n if it is.

Would you please look over these solved cases?
>  <Record Sequence>
MSIVIPLGVDTAETSYLEMAAGSE [KMT2E]

>  <Class Name>
n

$$$$
>  <Record Sequence>
LDNNASASGNATQTESGSEEVSST [C10orf62]

>  <Class Name>
y

$$$$
>  <Record Sequence>
LQCDAVNLAFGRRCEELEDARYKL [TEKT4]

>  <Class Name>
n

$$$$
>  <Record Sequence>
ELSRSRKLYGQRERVWALAQEKAA [FCHSD1]

>  <Class Name>
n

$$$$
>  <Record Sequence>
ASEFLEQSMSQTRELLLDGGYLQR [RSPH3]

>  <Class Name>
n

$$$$
>  <Record Sequence>
VYSLEPRLCGGKGGFGSMLRALGA [SDE2]

>  <Class Name>
n

$$$$

Okay, next one:
[Q] Determine whether this sequence has protein stability index no lower than 4: VQLIDDFKISGMNGIHVCMVFEVL [SRPK2]
[A] n

###

test: protein stability index of a GFP-peptide fusion (GPS, HEK-293T) (PSI 1-6); higher = more stable; conditions: treatment: DMSO; c terminus: a fixed tail appended
Tag: met if measured protein stability index is not below 5, not met if it is.

>  <Record Sequence>
PEEKKEEEGSANRRPEDQELESLS [CHGA]

>  <Class Name>
met

$$$$
>  <Record Sequence>
LHVACELARPECLFLLLGHGASPG [ANKRD9]

>  <Class Name>
not met

$$$$
>  <Record Sequence>
LESEGKNSKKEEPQELLQSQDFVG [ATE1]

>  <Class Name>
met

$$$$

[Q] Determine whether this sequence has protein stability index no lower than 5: SRGELIPISPSTEVGGSGIGTPPS [MYBL2]
[A] not met

[Q] Determine whether this sequence has protein stability index no lower than 5: LLDAHILEWHDSLFQILSERQDMY [ZNF511]
[A] not met

[Q] Determine whether this sequence has protein stability index no lower than 5: CWYCNRDFDDEKILIQHQKAKHFK [ZNF207]
[A] not met

[Q] Determine whether this sequence has protein stability index no lower than 5: QPMQNGEEDRPLGGGEGHQPAGNR [BEX3]
[A] met

[Q] Determine whether this sequence has protein stability index no lower than 5: LQAFGETLLLELEQDSGVQVEGLT [ADAMTS4]
[A] not met

[Q] Determine whether this sequence has protein stability index no lower than 5: FEQGKWDVFSENLLADVKGARAAL [STX11]
[A] not met

[Q] Determine whether this sequence has protein stability index no lower than 5: ALAVCLSFFYPVLFVLFMFFGMAF [SOAT1]
[A] not met

[Q] Determine whether this sequence has protein stability index no lower than 5: QALRENTYPFLAMIMLKDRRMTVV [FAF2]
[A] not met

[Q] Determine whether this sequence has protein stability index no lower than 5: RLNYDRKELEKRREESQHEIKDVL [PPFIA4]
[A] not met

[Q] Determine whether this sequence has protein stability index no lower than 5: QVTAPGAPPLQAETPGSAVDYPLH [TNXB]
[A] not met

[Q] Determine whether this sequence has protein stability index no lower than 5: KANNLSSLSKKYRQDAKYLNMRST [SEC22B]
[A] not met

[Q] Determine whether this sequence has protein stability index no lower than 5: AFNQNSSLGRHKRTHTGEKPYTCS [ZNF8]
[A] not met

[Q] Determine whether this sequence has protein stability index no lower than 5: KPQAPQKLDPTLSSCFFIESCGAQ
[A] not met

[Q] Determine whether this sequence has protein stability index no lower than 5: RAQKQCRKSSFAFYQAVRDLLPVW [ANKRD9]
[A] not met

[Q] Determine whether this sequence has protein stability index no lower than 5: WMWLSCSSFFQQFFHCYCPVGFGR [CRY1]
[A] not met

[Q] Determine whether this sequence has protein stability index no lower than 5: EADSQEQGHPQTGCECEDGPDGQE [GAGE1]
[A] met

[Q] Determine whether this sequence has protein stability index no lower than 5: KLWDPVDGSVVRDFEHRPKAPVVE [WDR88]
[A] not met

[Q] Determine whether this sequence has protein stability index no lower than 5: VFLVDICLLTYGMTSSSAYYYTKV [PKD2L1]
[A] not met

[Q] Determine whether this sequence has protein stability index no lower than 5: YLGSAYHASKCEFLANLHITALLN [DUSP5]
[A] not met

[Q] Determine whether this sequence has protein stability index no lower than 5: AVQGLNLRSPNNFLSYYRLTRFLS [CCND1]
[A] not met

[Q] Determine whether this sequence has protein stability index no lower than 5: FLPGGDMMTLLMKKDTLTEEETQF [STK38L]
[A] not met

[Q] Determine whether this sequence has protein stability index no lower than 5: EGVIDSSDKEIVAEAERLDVKAMG [EIF5]
[A] met
